test: In vivo pharmacokinetics: plasma and brain exposure after IP administration; parameters: species or system male C57BL/6 mice; conditions: male, C57BL/6, mouse, brain/plasma, ip, 10 mg/kg, 0.5 h, individual mouse, read-out: B:P Ratio, Individual
parameter: Kp at 0.5 h
Kindly provide the number alone.

input: Data request, read-out Kp at 0.5 h, for COc1nccc2[nH]cc(CCN(C)C)c12
output: 2

----------
assay: In vivo pharmacokinetics: plasma and brain exposure after IP administration; design: species or system male C57BL/6 mice; conditions: male, C57BL/6, mouse, brain, ip, 10 mg/kg, 0.083 h, n = 3, read-out: Brain Parenchyma Concentration, Mean ± SD
Reported concentration at 0.083 h values are given for each entry in this list.
Please respond with the number in nM and leave the unit unwritten.

* COc1ccc2[nH]cc(CCN(C)C)c2n1 [Example P-1] | 1890

Please find the next molecule below.
input: Value lookup for concentration at 0.083 h; key = COc1nccc2[nH]cc(CCN(C)C)c12 [Example P-5]
output: 984
